Target: Induced myeloid leukemia cell differentiation protein Mcl-1 (Homo sapiens)
Sequence (Q07820 whole entry): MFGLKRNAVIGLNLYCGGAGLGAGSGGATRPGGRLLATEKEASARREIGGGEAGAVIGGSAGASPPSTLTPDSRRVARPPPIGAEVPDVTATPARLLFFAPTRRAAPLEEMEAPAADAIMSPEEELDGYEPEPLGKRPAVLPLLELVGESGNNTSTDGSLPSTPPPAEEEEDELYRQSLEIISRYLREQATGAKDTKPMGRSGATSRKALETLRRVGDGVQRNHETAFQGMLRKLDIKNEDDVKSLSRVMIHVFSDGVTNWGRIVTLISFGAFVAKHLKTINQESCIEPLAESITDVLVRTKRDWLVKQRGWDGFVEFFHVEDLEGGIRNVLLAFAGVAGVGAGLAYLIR
Format: functional
The source made the active and inactive calls.
Reported IC50 is given for each of the following molecules.

MOLECULE: O=C1CSC(=S)N1/N=C/c1ccc(O)c([N+](=O)[O-])c1
IC50: 6.99 µM (active)
//
MOLECULE: O=[N+]([O-])C(=c1ccc2c(c1)N1C3=C(CCCC3)CC3CCCCC31N=2)[N+](=O)[O-] (stereo unspecified)
IC50: 1.95 µM (active)
//
MOLECULE: O=S(=O)(Nc1cc(Sc2nc[nH]n2)c(O)c2ccccc12)c1ccccc1
IC50: 11.7 µM (active)
//
MOLECULE: C=CC/N=c1\scc(-c2ccco2)n1/N=C/c1ccc(O)c(O)c1O
IC50: 2.81 µM (not active)
//
MOLECULE: Oc1ccc(/C=N/N=C(c2ccccc2)c2ccccc2)c(O)c1O
IC50: 4.44 µM (active)
//
MOLECULE: CC1CC(=O)c2c(cc3c(-c4c(O)cc(O)c5c(O)c6c(cc45)OC(C)CC6=O)c(O)cc(O)c3c2O)O1 (stereo unspecified)
IC50: 1.49 µM (active)

Entry source: ChEMBL document CHEMBL1201862
